RUN_DESCRIPTION: inhibition of 3D7 malaria parasite growth – strain 3D7 (AID 2306);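 also: 0% = DMSO wells and 100% = chloroquine plus artemisinin control wells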
CONDITION_INFO: P. falciparum 3D7 erythrocytic growth, LDH absorbance, 72 h; at 2 µM; hits give high values
Label rule, in plain words: growth inhibition of 90% and up is T, under 90% is F.

• c1ccc2[nH]c(CN(Cc3nc4ccccc4[nH]3)Cc3nc4ccccc4[nH]3)nc2c1 = F
• COc1ccc(OCC(O)CN(Cc2ccccc2OC)C(=O)Nc2ccc(Br)cc2)cc1 (centres undefined) = T
• CN1CCCc2ccc(NC(=O)Nc3ccc(-c4ccccc4)cc3)cc2C1 = T
• COc1cc(Cc2cnc(N)nc2N)cc(CC(C)O)c1O (centres undefined) = T
• O=C(Cc1ccccc1)NC(CCN1CCC(N(C2CC2)S(=O)(=O)c2cccc(C(F)(F)F)c2)CC1)c1ccc(Cl)c(Cl)c1 (centres undefined) = F
• CCOC(=O)c1cc2c(CCN3C(=O)c4ccccc4C3=O)cn(C)c2cc1-c1ccncc1 = T
• COc1cc(NC(=O)N2CCOC(CCN3CCC4(CCc5ccccc54)CC3)(c3ccc(Cl)c(Cl)c3)C2)cc(OC)c1OC (centres undefined) = T
• COc1cc(OC)cc(-c2nc3c(C#N)c(OCCN(C)C)ccc3[nH]2)c1 = T
• O=C(Nc1ccc(-c2cccc(-c3nc4ccc(F)cc4[nH]3)c2)cc1)Nc1ccsc1 = T
• CCCCCCCN1CC[C@@H](CCCc2ccnc3ccc(OCCCCNC(N)=O)cc23)[C@@H](CC)C1 = T
• Cc1nc2ccc(-c3nc4ccc(N)cc4[nH]3)cc2[nH]1 = T
• CCN(CC)CCN(Cc1ccc(-c2ccc(C(F)(F)F)cc2)cc1)C(=O)Cn1c(CCC2CCCCC2)nc(=O)c2ccccc21 = F
• CO/C(=C\C=C\c1cc2cc(Cl)c(Cl)cc2[nH]1)C(=O)NCCCN1CCN(c2cccc(CCO)c2)CC1 = T
• COc1cc2c(cc1OC)CN(CCCCc1ccc(NC(=O)c3cc(Cl)cc(Cl)c3)cc1)CC2 = T
• CCCc1ccc(S(=O)(=O)NC2CCN(C(=O)Nc3ccc(I)cc3)CC2)cc1 = T

----------
ASSAYED_TARGET: Plasmodium falciparum protein kinase 6 (PK6, PF3D7_1337100) (UniProt Q8IDW1)
RUN_DESCRIPTION: PfPK6 kinase inhibitors, biochemical, TCAMS library (AID 1159586)
CONDITION_INFO: recombinant PfPK6, Kinase-Glo ATP depletion luminescence
Results with a measured potency or affinity are listed apart. Active and inactive are the calls of the source. No rule for the calls is given here.
RECORDED_ENDPOINT: outcome

• COc1ccc2nccc([C@@H](O)CN3CCC(NCc4cc5cccc6c5n(c4=O)CCC6)CC3)c2c1 = inactive
• CN(C)CCCNCc1ccc(-c2ccc(F)c(Cl)c2)o1 = inactive
• CC(C)CNC(=O)c1cncc(-c2ccc(CN(C)C3CCN(C)CC3)cc2)c1 = inactive
• Cc1cc(F)ccc1Nc1nc(N(C)c2ccccc2)c2cc(OCCCN(C)C)ccc2n1 = inactive
• Cc1cc(N[C@@H](Cc2ccccc2)C(=O)NCCOc2ccccc2)nc(Nc2ccccc2)n1 = inactive
• COc1ccc2nccc([C@@H](O)CN3CCC(NC(=O)c4cccc(C(=O)c5ccccc5)c4)CC3)c2c1 = inactive
• CCOc1cc(CC)ccc1C1CCN(CCCCNC(=O)c2ccc(NC(=O)c3ccc(C#N)cc3)cc2)CC1 = inactive
• CC1CN=C(c2cccc(NC(=O)Nc3cccc(C4=NCC(C)N4)c3)c2)N1 (centres undefined) = inactive
• COc1ccc(Nc2nccc(-c3c(-c4cccc(NC(=O)c5c(F)cccc5F)c4)nn4ccccc34)n2)cc1Cl = inactive

----------
ASSAYED_TARGET: Calcium-dependent protein kinase 4 (Plasmodium falciparum (isolate 3D7))
RUN_DESCRIPTION: PfCDPK4 kinase inhibitors, biochemical, TCAMS library (AID 1159588)
CONDITION_INFO: recombinant PfCDPK4, Kinase-Glo ATP depletion luminescence
Entries with a potency or affinity are not part of this list. Activity calls are given as the source filed them. The limit is not given here; nearly all actives have IC50 up to about 0.91 µM.
RECORDED_ENDPOINT: outcome

• CNc1nc(NN=Cc2cc([N+](=O)[O-])c(Cl)cc2Cl)nc(Nc2cccc(C(F)(F)F)c2)n1 = inactive
• N#Cc1ccc(N(CCOc2ccc(Cl)c(Cl)c2)Cc2ccccc2C(F)(F)F)cc1C(F)(F)F = inactive
• COc1cc2nc(N3CCN(C(=O)c4ccco4)CC3)nc(NCc3ccccc3)c2cc1OC = inactive
• N#Cc1ccc(N2CCN(Cc3cccc(-c4ccc(-c5nc6ccccc6[nH]5)cc4)c3)CC2)nc1 = inactive
• O=C(c1ccc(Cl)cc1)C1CCN(CCCOc2ccc3c(c2)CCNCC3)CC1 = inactive
• Cc1nnsc1C(=O)Nc1ccc(-c2ccc(-c3nc4c(C)cccc4[nH]3)s2)cc1 = inactive
• CN1CCN(CC(=O)Nc2ccc(-c3cccc(-c4nc5ccc(C(F)(F)F)cc5[nH]4)c3)cc2)CC1 = inactive
• Cc1cc(NC(=O)Nc2ccc(Cl)cc2F)c2ccccc2n1 = inactive
• N#Cc1ccc2c(c1)CCN(CCCn1c(-c3ccc4ccccc4c3)nc3ccncc31)CC2 = inactive

----------
Overview of reported inhibition across a group of compounds:
ASSAYED_TARGET: L-lactate dehydrogenase (Plasmodium falciparum (isolate CDC / Honduras)) (UniProt Q27743)
Sequence (Q27743 whole entry, looked up): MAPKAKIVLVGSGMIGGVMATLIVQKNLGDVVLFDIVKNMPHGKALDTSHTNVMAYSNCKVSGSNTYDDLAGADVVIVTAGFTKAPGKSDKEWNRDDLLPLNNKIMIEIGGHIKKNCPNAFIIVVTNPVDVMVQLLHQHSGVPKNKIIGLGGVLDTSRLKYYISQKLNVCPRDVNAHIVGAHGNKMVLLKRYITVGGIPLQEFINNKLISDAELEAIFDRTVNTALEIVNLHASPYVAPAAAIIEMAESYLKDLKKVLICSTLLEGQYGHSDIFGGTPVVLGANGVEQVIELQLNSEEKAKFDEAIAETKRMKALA
RUN_DESCRIPTION: PfLDH activity inhibition – cell lysate, 3D7 strain, counter-screen for P. falciparum growth inhibition project (AID 2304);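 also: 0% = vehicle and 100% = reference inhibitor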
CONDITION_INFO: P. falciparum 3D7 crude extract, LDH APAD/NBT absorbance; at 2 µM; hits give high values
RECORDED_ENDPOINT: inhibition (%)

- Cc1nnsc1C(=O)Nc1cccc(-c2ccc(-c3nc4ccccc4[nH]3)s2)c1: -3
- CC(C)Cc1c(O)nc(SCCN2CCOCC2)[nH]c1=O: 1
- O=C(Nc1ccc(Cl)c(Cl)c1)Nc1ccccc1N1CCNCC1: 1
- O=S(=O)(Nc1ccc(CCN2CCCCC2CCN2CCCC2)cc1)c1cccc2cccnc12 (stereo not given): 1
- CC(=NNC(=S)NC(C)(C)C)c1ccccn1: -3
- CCc1ccc(CN2CCC(NC(=O)c3ccc(-c4ccc(N(C)C)cc4)s3)CC2)cc1: -4
- O=C(Nc1cccc(CN2CCN(Cc3ccc(O)cc3)CC2)c1)c1cc2ccccc2s1: -4
- O=C(/C=C/c1ccc([N+](=O)[O-])cc1)N1CCC(NS(=O)(=O)c2cccc(C(F)(F)F)c2)CC1: -1
- CCCC(=O)c1cnc2cc(O)ccc2c1Nc1ccccc1C: -8
- Cc1cc(CNCCCCCNCc2ccc(Cl)cc2)ccc1O: -7

----------
RUN_DESCRIPTION: antimalarial activity against Dd2 strain (AID 2302);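 also: 0% = DMSO untreated growth and 100% = chloroquine plus artemisinin killed control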
CONDITION_INFO: P. falciparum Dd2 in RBCs, LDH growth readout, 72 h; at 2 µM
The source made the active and inactive calls.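 Rule for the calls: active = growth inhibition above 50% at the single 2 µM test dose, taken to imply half-maximal potency below 2 µM; inactive = the rest.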
Possible outcomes: active, inactive

- O=C(NCc1ccc(F)cc1)c1cc(Br)cc(N2CCN(c3ccncc3)CC2)c1: active
- CCCCN(CCCC)CCC(O)C(=Cc1ccc(Cl)cc1Cl)c1ccc(C(F)(F)F)cc1N (centres undefined): active
- CCCN(Cc1nnc(-c2cccs2)o1)C(=O)CSc1nnnn1-c1ccc(C)c(C)c1: active
- Cc1cccc2[nH]c(-c3ccc(-c4cccc(CNCC5CCCO5)c4)cc3)nc12 (centres undefined): active
- COc1ccc(S(=O)(=O)NCCCC2CCN(CCCCCNC(=O)C=Cc3ccc(Cl)c(Cl)c3)CC2)cc1: inactive
- O=C(N[C@H]1CCN(Cc2ccc(OCCCN3CCCCC3)cc2)C1)c1ccc2ccccc2c1: inactive
- O=C(NCCc1ccc(Cl)c(Cl)c1)C1CCCN(C(=O)c2ccc(O)c(-c3ccc(Cl)c(Cl)c3)c2)C1 (centres undefined): active
- O=C(Nc1cccc(-c2ccc(CN3CCC(O)CC3)cc2)c1)c1ccc(Cl)cc1: inactive
- Cc1ccc(Cc2cnc(CN3CCCCC3)c(O)c2)cc1: active
- COc1cccc(-c2cccc(-c3ccc(NC(=O)c4ccc([N+](=O)[O-])o4)cc3)n2)c1: active
- CCn1c(SCC(=O)Nc2cc(C(F)(F)F)ccc2Cl)nc2ccccc2c1=O: active
- Nc1cccc(CNCc2cccc(-c3csc(-c4nc5ccccc5[nH]4)c3)c2)c1: active
- COc1ccc(CCN(C)CCCOc2ccc(NC(=O)c3cccc4c(=O)c5ccccc5[nH]c34)cc2)cc1OC: inactive
- CC(C)n1cc(CN2CCCC(C(=O)Nc3cccc(-c4cc5ccccc5[nH]4)c3)C2)cn1 (centres undefined): active
- CN1CCN(Cc2cc3cc(NC(=O)/C=C/c4cccc(Cl)c4)ccc3s2)CC1: active
- O=C(/C=C/c1ccc(Cl)c(Cl)c1)NCCCCCN1CCC(NC(=O)c2ccc3ccccc3c2)CC1: inactive
- Cc1cnc(C(=O)Nc2cccc(-c3ccc(-c4nc5ccc(C(F)(F)F)cc5[nH]4)s3)c2)cn1: inactive
- Cc1cccc(NC(=O)c2ccc(C(=O)NC3CCN(CC4CCCCC4)CC3)cc2)c1: inactive
- CCN(CCCN1CCCCC1)c1cc(C)nc(Nc2ccc(C)cc2)n1: inactive
